- assay_summary: in vitro
- run_parameters: human, hela cells, % viability
experimental_endpoint: viability at 28.5 h, 10 µM (%)
State the answer as a number, implicitly in %.

According to the records, this compound "COc1ccc(NC(=O)N[C@H]2[C@H](O)[C@@H](Sc3ccccc3)[C@@H]3OC[C@H]2O3)cc1" displays viability at 28.5 h, 10 µM of 96.4

Value of viability at 28.5 h, 10 µM reported for the compound Cc1nc(C2CC(O)C2)cc(N(C)CCOc2cccc(Cl)c2)n1 (stereo not shown) is 94.6

Notebook: "O=C1[C@H]2CN(S(=O)(=O)c3ccc(F)cc3)CCN2C(=O)N1CCO" , viability at 28.5 h, 10 µM read as 84.5

Notebook: "O=C(CSc1ccc2nnc(-c3ccc(F)cc3)n2n1)N1CCOCC1" , viability at 28.5 h, 10 µM read as 96.9

So, "O=C(COc1ccccc1/C=C1/NC(=O)NC1=O)Nc1ccccc1" ? Its viability at 28.5 h, 10 µM was 99.3

Reported viability at 28.5 h, 10 µM of "Cc1nc2c(c(=O)[nH]1)CCN(Cc1cc(C)n(C3CC3)c1C)C2" : 89.2

Reported viability at 28.5 h, 10 µM of Cc1ccc(OCC(O)Cn2c(=N)n(CCN3CCCCC3)c3ccccc32)cc1 (stereo not shown) [CBK266375C] : 98.9

Quick note, viability at 28.5 h, 10 µM for "CC(C)c1ncc(CN2CCC(CC(=O)N3CCN(c4ccccc4)CC3)CC2)cn1" landed at 101

Briefly, viability at 28.5 h, 10 µM measured for "COc1cc(-c2cc(Nc3ccc(N(C)C)cc3)ncn2)cc(OC)c1OC" : 38.7

Quick note, viability at 28.5 h, 10 µM for "O=C(NCCc1ccccc1)Nc1cc2cccnc2c(Br)n1" landed at 95.9

# compound "CCCn1c(C(=O)Nc2cccnc2)cc2c(=O)n(C)c(=O)n(C)c21" ; its viability at 28.5 h, 10 µM = 90.8

Sure, the documented viability at 28.5 h, 10 µM for O=C(NCc1ccccc1)C(Cc1ccc([N+](=O)[O-])cc1)N1C(=O)c2ccccc2C1=O (stereo not shown) is 95.9

The reported viability at 28.5 h, 10 µM of the compound COc1ccc(OC(C)C(=O)Nc2cc(OC)c(Cl)cc2OC)cc1 (stereo not shown) was 96

Reported viability at 28.5 h, 10 µM ( "O=C(NCc1ccc(CO)cc1)[C@@H]1CN(Cc2ccccc2)C[C@H]1C(=O)c1ccc(F)cc1" ) = 97.8

# compound "O=C(O)c1cc(S(=O)(=O)Nc2ccc(F)cc2)c(Cl)cc1Cl" ; its viability at 28.5 h, 10 µM = 84.9

GET /value?item= Cc1nc(C2CCCN(C(=O)c3ccnn3C)C2)c2sccn12 (stereo not shown) &field=viability at 28.5 h, 10 µM returns 87.2

For this compound ( "CC(C)c1c(N)nc(SCc2ccccc2)nc1Cl" ), measured viability at 28.5 h, 10 µM is 123

The measured viability at 28.5 h, 10 µM associated with "OCc1ccc(-n2ncc(-c3ccc(C(F)(F)F)cc3)n2)cc1" reads 94.6

Item: "CCc1nn(CC(=O)N2CCCCC2)c(=O)c2cc3occc3n12" | viability at 28.5 h, 10 µM: 77

viability at 28.5 h, 10 µM measured on "COc1ccc(NC(=O)c2ccc(N3CCN(Cc4ccccc4)CC3)c([N+](=O)[O-])c2)cc1" = 106

"O=C(O)CCCC(=O)NNC(=O)c1cccc(Br)c1" yielded viability at 28.5 h, 10 µM of 99.9

The recorded viability at 28.5 h, 10 µM for entry "Cc1cc(C)c(-n2nnnc2SCc2ccc(F)cc2)c(C)c1" equals 103

Record summary for CC(NC(=O)c1ncoc1-c1ccc(F)cc1)c1ccccn1 (stereo not shown) : reported viability at 28.5 h, 10 µM = 90.9

The recorded viability at 28.5 h, 10 µM for "Cc1ccc2c(c1)cc(C)c1nn(CC(=O)NC(C)C)c(=O)n12" is 83.5

Record summary for "CC(=O)N1CCc2ccc(NC(=O)c3cncc(-c4ccc(C(=O)N5CCOCC5)cc4)c3)cc21" : reported viability at 28.5 h, 10 µM = 77.8

Quick note, viability at 28.5 h, 10 µM for "Cc1ccc(N2C(=O)c3ccc(C(=O)OCc4ccc([N+](=O)[O-])cc4)cc3C2=O)cc1Cl" landed at 103

// field: viability at 28.5 h, 10 µM; key: O=C(NC(n1cnc2c(N3CCCCC3)ncnc21)C(Cl)(Cl)Cl)c1ccccc1 (stereo not shown) ; value = 98.5

// viability at 28.5 h, 10 µM lookup, compound = Clc1ccc(CN2CCC(Oc3cncc(OCCN4CCOCC4)n3)C2)cc1 (stereo not shown) , result: 90.9

viability at 28.5 h, 10 µM recorded for this compound, "O=C(c1ccno1)n1nccc1-c1cc(-c2ccccc2)no1" , is 101

Per the records, this compound ( "COc1ccc(S(=O)(=O)N2CCN(C(=O)c3ccco3)CC2)c2ccccc12" ) has viability at 28.5 h, 10 µM equal to 86.8

Summary for this compound, "N#Cc1cccc(S(=O)(=O)Nc2ccc(-c3nnn[nH]3)cc2)c1" : viability at 28.5 h, 10 µM is 95.5

Summary for this compound, "CC(C)(CSc1ncccn1)NS(=O)(=O)c1ccccc1" : viability at 28.5 h, 10 µM is 88.3

get_value(item= "COCCCn1c(=O)[nH]c2ncc(-c3cccnc3)nc21" , readout=viability at 28.5 h, 10 µM) returns 104

Form field viability at 28.5 h, 10 µM, entry CC(NC1CCN(Cc2ccccc2)CC1)C12CC3CC(CC(c4ccc(Cl)cc4)(C3)C1)C2 (stereo not shown) : 90.1

Entry "O=C(CSc1ccc(-c2ccncc2)nn1)Nc1ccc(F)cc1" , viability at 28.5 h, 10 µM reported as 91

GET /value?item= "c1csc(CNc2c(-c3cccs3)nc3cnccn23)c1" &field=viability at 28.5 h, 10 µM returns 92.7

Entry "Cc1cc(NC(=O)CN(C)CCNC(=O)C2CCCC2)no1" ; viability at 28.5 h, 10 µM = 84.9
